B1: tRNA (parent)
chain: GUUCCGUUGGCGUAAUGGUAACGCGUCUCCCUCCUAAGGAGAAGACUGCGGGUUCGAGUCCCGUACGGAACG

Variants of: B1
test description: yeast fitness relative to wild type (ratio to wild type); higher = fitter; tRNA-Arg(CCU), competitive growth, 37 C, YPD
Fewer inactive variants are shown than the library holds.
measurement type: yeast fitness
One number for each entry.

The following variants have reported results that may help.
> print(dat)
   variant.identifier  recorded.result
1      U16A C46G A70G            0.604
2      G23A C62U A65C            0.582
3           C31U A65G             1.11
4       C5G C30A A36G            0.568

Turning now to a further record.
Q. Record request: yeast fitness value, item U32G C46G
A. 0.757
